Hey, just so you know, these numbers are from ChEMBL document CHEMBL1128632.

molecular target: 5-hydroxytryptamine receptor 1A (Homo sapiens, UniProt P08908); test: Ability to bind to 5-hydroxytryptamine 1A receptor subtype from cloned human expressed in Ha7 cells; type: cell-based
Sequence (P08908 whole entry): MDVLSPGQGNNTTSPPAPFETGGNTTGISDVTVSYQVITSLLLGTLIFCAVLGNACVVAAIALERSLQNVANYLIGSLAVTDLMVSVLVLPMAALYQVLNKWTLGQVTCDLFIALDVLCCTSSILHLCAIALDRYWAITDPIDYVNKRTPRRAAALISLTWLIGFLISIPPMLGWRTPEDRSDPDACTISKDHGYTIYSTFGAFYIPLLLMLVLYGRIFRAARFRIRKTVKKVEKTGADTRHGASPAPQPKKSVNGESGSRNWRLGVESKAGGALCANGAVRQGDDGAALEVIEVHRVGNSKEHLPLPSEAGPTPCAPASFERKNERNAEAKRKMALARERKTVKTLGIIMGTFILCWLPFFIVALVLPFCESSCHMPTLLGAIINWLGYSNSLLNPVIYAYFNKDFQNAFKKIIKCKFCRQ
// returns Not fulfilled unless IC50 is strictly below 10 nM, in which case Fulfilled

Exercise: Could you please tell me whether IC50 recorded for c1ccc2c(c1)CCC(CNCCCCCNC1=NCCCN1)O2 (stereo unspecified) is less than 10 nM?
Solution: Fulfilled

Exercise: Could you please tell me whether IC50 recorded for COc1ccc2c(c1)OC(CNCCCNC1=NCCCN1)CC2 (stereo unspecified) is less than 10 nM?
Solution: Not fulfilled

Exercise: Could you please tell me whether IC50 recorded for COc1ccc2c(c1)CCC(CNCCCNC1=NCCCN1)O2 (stereo unspecified) is less than 10 nM?
Solution: Not fulfilled

Exercise: Could you please tell me whether IC50 recorded for c1ccc2c(c1)CCC(CNCCCCNC1=NCCCN1)O2 (stereo unspecified) is less than 10 nM?
Solution: Fulfilled

Exercise: Could you please tell me whether IC50 recorded for CCc1ccc2c(c1)OC(CNCCCNC1=NCCCN1)CC2 (stereo unspecified) is less than 10 nM?
Solution: Fulfilled

Exercise: Could you please tell me whether IC50 recorded for COc1cccc2c1CCC(CNCCCNC1=NCCCN1)O2 (stereo unspecified) is less than 10 nM?
Solution: Not fulfilled

Exercise: Could you please tell me whether IC50 recorded for Fc1ccc2c(c1)CCC(CNCCCNC1=NCCCN1)O2 (stereo unspecified) is less than 10 nM?
Solution: Not fulfilled

Exercise: Could you please tell me whether IC50 recorded for c1ccc2c(c1)CCC(CNCCNC1=NCCCN1)O2 (stereo unspecified) is less than 10 nM?
Solution: Not fulfilled

Exercise: Could you please tell me whether IC50 recorded for c1ccc2c(c1)CCC(CNCCCNC1=NCCCN1)O2 (stereo unspecified) is less than 10 nM?
Solution: Not fulfilled

Exercise: Could you please tell me whether IC50 recorded for CC(C)/N=C(\N)NNCCCNCC1CCc2ccccc2O1 (stereo unspecified) is less than 10 nM?
Solution: Fulfilled

Exercise: Could you please tell me whether IC50 recorded for COc1cccc2c1OC(CNCCCNC1=NCCCN1)CC2 (stereo unspecified) is less than 10 nM?
Solution: Fulfilled

---

biological target: 5-hydroxytryptamine receptor 1A (Homo sapiens, UniProt P08908); test: Ability to bind to 5-hydroxytryptamine 1A receptor from cloned human expressed in Ha7 cells; type: cell-based
// returns class 0 unless IC50 is strictly below 4 nM, in which case class 1

Exercise: Could you please tell me whether IC50 recorded for CN1c2ccccc2CCC1CNCCCNC1=NCCCN1 (configuration not stated) is less than 4 nM?
Solution: class 0

Exercise: Could you please tell me whether IC50 recorded for c1ccc2c(c1)CC[C@@H](CNCCCNC1=NCCCN1)O2 is less than 4 nM?
Solution: class 0

Exercise: Could you please tell me whether IC50 recorded for Clc1ccc(NCCCNCC2CCc3ccccc3O2)nn1 (configuration not stated) is less than 4 nM?
Solution: class 1

Exercise: Could you please tell me whether IC50 recorded for c1ccc2c(c1)CC(CNCCCNC1=NCCCN1)CO2 (configuration not stated) is less than 4 nM?
Solution: class 0

Exercise: Could you please tell me whether IC50 recorded for c1ccc2c(c1)CCC(CNCCCNc1nc3ccccc3[nH]1)O2 (configuration not stated) is less than 4 nM?
Solution: class 0

Exercise: Could you please tell me whether IC50 recorded for c1ccc2c(c1)CCC(CNCCCNC1=NCCCN1)C2 (configuration not stated) is less than 4 nM?
Solution: class 0

Exercise: Could you please tell me whether IC50 recorded for c1ccc2c(c1)CCCC(CNCCCNC1=NCCCN1)O2 (configuration not stated) is less than 4 nM?
Solution: class 0

Exercise: Could you please tell me whether IC50 recorded for c1ccc2c(c1)CC(CNCCCNC1=NCCCN1)O2 (configuration not stated) is less than 4 nM?
Solution: class 0

Exercise: Could you please tell me whether IC50 recorded for c1ccc2c(c1)OCC(CNCCCNC1=NCCCN1)O2 (configuration not stated) is less than 4 nM?
Solution: class 0

Exercise: Could you please tell me whether IC50 recorded for CC1(CNCCCNC2=NCCCN2)CCc2ccccc2O1 (configuration not stated) is less than 4 nM?
Solution: class 0

Exercise: Could you please tell me whether IC50 recorded for c1ccc(NCCCNCC2CCc3ccccc3O2)nc1 (configuration not stated) is less than 4 nM?
Solution: class 1

Exercise: Could you please tell me whether IC50 recorded for c1ccc2c(c1)CCC(CNCCCNC1=NCCN1)O2 (configuration not stated) is less than 4 nM?
Solution: class 0

Exercise: Could you please tell me whether IC50 recorded for c1cnc(NCCNCC2CCc3ccccc3O2)nc1 (configuration not stated) is less than 4 nM?
Solution: class 0

Exercise: Could you please tell me whether IC50 recorded for CC(C)/N=C(\NC#N)NCCCNCC1CCc2ccccc2O1 (configuration not stated) is less than 4 nM?
Solution: class 0

Exercise: Could you please tell me whether IC50 recorded for c1ccc2c(c1)CCC(CNCCCNC1=NCCCC1)O2 (configuration not stated) is less than 4 nM?
Solution: class 0

Exercise: Could you please tell me whether IC50 recorded for c1ccc2c(c1)CCC(CNCCCNc1ccncn1)O2 (configuration not stated) is less than 4 nM?
Solution: class 0

Exercise: Could you please tell me whether IC50 recorded for c1cnc(NCCCNCC2CCc3ccccc3O2)nc1 (configuration not stated) is less than 4 nM?
Solution: class 1

Exercise: Could you please tell me whether IC50 recorded for O=C1CCCN=C(NCCCNCC2CCc3ccccc3O2)N1 (configuration not stated) is less than 4 nM?
Solution: class 1

Exercise: Could you please tell me whether IC50 recorded for c1ccc2c(c1)CCC(CNCCCNc1nccs1)O2 (configuration not stated) is less than 4 nM?
Solution: class 1

Exercise: Could you please tell me whether IC50 recorded for c1ccc2c(c1)CC[C@H](CNCCCNC1=NCCCN1)O2 is less than 4 nM?
Solution: class 0

Exercise: Could you please tell me whether IC50 recorded for c1ccc2c(c1)NCC(CNCCCNC1=NCCCN1)O2 (configuration not stated) is less than 4 nM?
Solution: class 0

---

species on record: Canis familiaris; assay: Effective dose required to induce constriction of dog saphenous vein segments; assay type: functional; conditions: Canis lupus familiaris, read-out: ED50 (the source's name)
quantityKind: EC50 (nM)
Answer in nM, number only, no unit symbol.

Exercise: So what does the record say about EC50 for c1ccc2c(c1)CCC(CNCCCNc1ccncn1)O2 (configuration not stated) ?
Solution: 78.7

Exercise: So what does the record say about EC50 for c1ccc(NCCCNCC2CCc3ccccc3O2)nc1 (configuration not stated) ?
Solution: 380

Exercise: So what does the record say about EC50 for COc1ccc2c(c1)OC(CNCCCNC1=NCCCN1)CC2 (configuration not stated) ?
Solution: 17.8

Exercise: So what does the record say about EC50 for c1ccc2c(c1)CC[C@H](CNCCCNC1=NCCCN1)O2 ?
Solution: 9.09

Exercise: So what does the record say about EC50 for c1ccc2c(c1)CCC(CNCCCNC1=NCCCC1)O2 (configuration not stated) ?
Solution: 17

Exercise: So what does the record say about EC50 for c1ccc2c(c1)CCC(CNCCCNC1=NCCCN1)O2 (configuration not stated) ?
Solution: 4.53

Exercise: So what does the record say about EC50 for c1ccc2c(c1)CCC(CNCCCNC1=NCCN1)O2 (configuration not stated) ?
Solution: 31.5

Exercise: So what does the record say about EC50 for CC(C)/N=C(\NC#N)NCCCNCC1CCc2ccccc2O1 (configuration not stated) ?
Solution: 115

Exercise: So what does the record say about EC50 for Fc1ccc2c(c1)CCC(CNCCCNC1=NCCCN1)O2 (configuration not stated) ?
Solution: 19.7

Exercise: So what does the record say about EC50 for c1ccc2c(c1)CCC(CNCCCNC1=NCCCN1)C2 (configuration not stated) ?
Solution: 615

---

organism: Canis familiaris; assay: Effective dose required to induce constriction of dog saphenous vein segments; assay type: functional; details: Canis lupus familiaris, read-out: ED50 (the source's name)
quantityKind: pEC50
Scale: negative log10 of molar concentration, which is what pEC50 denotes.

Exercise: So what does the record say about pEC50 for c1ccc2c(c1)CCC(CNCCCNc1cnccn1)O2 (centres undefined) ?
Solution: 7.81

Exercise: So what does the record say about pEC50 for CNS(=O)(=O)Cc1ccc2[nH]cc(CCN(C)C)c2c1 ?
Solution: 6.80

Exercise: So what does the record say about pEC50 for c1ccc2c(c1)CCC(CNCCCNc1nccs1)O2 (centres undefined) ?
Solution: 6.24

Exercise: So what does the record say about pEC50 for c1cnc(NCCNCC2CCc3ccccc3O2)nc1 (centres undefined) ?
Solution: 7.22

Exercise: So what does the record say about pEC50 for c1ccc2c(c1)CCC(CNCCCCCNC1=NCCCN1)O2 (centres undefined) ?
Solution: 7.82

---

organism: Canis familiaris; assay: Effective dose required to induce constriction of dog saphenous vein segments; assay type: functional; settings: Canis lupus familiaris, read-out: ED50 (the source's name)
pEC50: −log10 of the molar value.
Could you please report measured pEC50 for the items listed next?

Exercise: So what does the record say about pEC50 for c1ccc2c(c1)CC(CNCCCNC1=NCCCN1)O2 (stereo unspecified) ?
Solution: < 6.00

Exercise: So what does the record say about pEC50 for c1ccc2c(c1)CC(CNCCCNC1=NCCCN1)CO2 (stereo unspecified) ?
Solution: < 6.00

Exercise: So what does the record say about pEC50 for COc1ccc2c(c1)CCC(CNCCCNC1=NCCCN1)O2 (stereo unspecified) ?
Solution: < 6.00

Exercise: So what does the record say about pEC50 for c1ccc2c(c1)NCC(CNCCCNC1=NCCCN1)O2 (stereo unspecified) ?
Solution: < 6.00

Exercise: So what does the record say about pEC50 for c1ccc2c(c1)CCCC(CNCCCNC1=NCCCN1)O2 (stereo unspecified) ?
Solution: < 6.00

Exercise: So what does the record say about pEC50 for Clc1ccc(NCCCNCC2CCc3ccccc3O2)nn1 (stereo unspecified) ?
Solution: < 7.00
